# Activity for Human ERG per entry
experimentalTarget: human ERG (hERG) (Homo sapiens)
Sequence (Q12809 whole entry): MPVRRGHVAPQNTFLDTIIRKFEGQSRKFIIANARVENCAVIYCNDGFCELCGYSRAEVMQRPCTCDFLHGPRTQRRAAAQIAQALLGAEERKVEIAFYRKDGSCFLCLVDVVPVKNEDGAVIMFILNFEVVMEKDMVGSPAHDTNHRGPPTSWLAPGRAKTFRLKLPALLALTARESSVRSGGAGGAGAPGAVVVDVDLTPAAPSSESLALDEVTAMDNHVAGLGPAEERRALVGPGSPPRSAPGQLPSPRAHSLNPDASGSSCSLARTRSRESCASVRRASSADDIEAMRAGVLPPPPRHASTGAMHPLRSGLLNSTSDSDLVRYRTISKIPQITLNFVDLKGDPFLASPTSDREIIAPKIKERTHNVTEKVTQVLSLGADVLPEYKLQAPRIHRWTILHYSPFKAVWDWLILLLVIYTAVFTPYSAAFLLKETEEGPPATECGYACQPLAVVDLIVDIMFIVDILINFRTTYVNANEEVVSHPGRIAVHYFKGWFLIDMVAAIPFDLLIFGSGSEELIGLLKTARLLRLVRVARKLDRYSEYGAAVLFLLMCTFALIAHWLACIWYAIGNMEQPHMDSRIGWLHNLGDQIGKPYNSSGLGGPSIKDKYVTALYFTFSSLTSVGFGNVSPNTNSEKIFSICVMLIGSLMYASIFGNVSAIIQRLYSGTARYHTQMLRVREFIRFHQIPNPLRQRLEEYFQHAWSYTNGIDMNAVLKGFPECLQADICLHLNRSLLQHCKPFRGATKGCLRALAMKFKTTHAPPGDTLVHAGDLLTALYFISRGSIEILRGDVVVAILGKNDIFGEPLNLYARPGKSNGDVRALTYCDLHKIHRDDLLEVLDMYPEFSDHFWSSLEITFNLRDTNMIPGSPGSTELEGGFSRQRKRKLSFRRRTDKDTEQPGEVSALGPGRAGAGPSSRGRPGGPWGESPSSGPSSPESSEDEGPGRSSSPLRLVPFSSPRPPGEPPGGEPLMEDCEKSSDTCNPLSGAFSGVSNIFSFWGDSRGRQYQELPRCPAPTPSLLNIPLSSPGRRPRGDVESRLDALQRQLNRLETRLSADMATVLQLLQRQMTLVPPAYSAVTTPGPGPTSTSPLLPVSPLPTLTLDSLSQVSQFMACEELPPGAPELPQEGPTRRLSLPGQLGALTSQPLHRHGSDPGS
assaySummary: Affinity for human ERG (hERG)
Format: binding
conditionNotes: compounds according to the present invention
assayMetric: Activity for Human ERG (µM)

• Cc1nc(SCc2cc(N3CCC(F)(F)CC3)cc(NCCS(C)(=O)=O)n2)oc1C = 5.9
• Cc1nc(SCc2cc(N3CCCCCC3)cc(NCC(F)(F)F)n2)cn1C = 8.2
• Cc1cc(CCc2cc(N3CCC(F)(F)CC3)cc(NCC#N)n2)nn1C = 11
• CCc1oc(CC(O)c2cc(N3C4CCC3COC4)cc(NCC(F)(F)F)n2)nc1C (single isomer, unassigned) = 14

====

experimentalTarget: UniProt:Q12809
assaySummary: Affinity for human ERG (hERG)
Type: binding
conditionNotes: compounds according to the present invention
Entries and their Activity for Human ERG values follow.
assayMetric: Activity for Human ERG (µM)

• Cc1nc(SCc2cc(N3C4CCC3COC4)cc(NCC#N)n2)sc1C = 33
• Cc1nc(SCc2cc(N3CCSCC3)cc(NCC#N)n2)n(C)c1C = 7.3
• Cc1nc(SCc2cc(N3CCC(F)(F)CC3)cc(NCC(F)(F)F)n2)nn1C = 16
• COC(=O)CNc1cc(N2C3CCC2COC3)cc(CSc2nc(C)c(C)s2)n1 = 7.4
• O=S1(=O)CCN(c2cc(CSc3nc4c(o3)CCCC4)nc(NCC(F)(F)F)c2)CC1 = 14
• Cc1cc(SCc2cc(N3CCC(F)(F)CC3)cc(NCC(F)(F)F)n2)nn1C = 5.3

====

Entries and their pIC50 values follow.
experimentalTarget: UniProt P25929
Sequence (P25929 1-384): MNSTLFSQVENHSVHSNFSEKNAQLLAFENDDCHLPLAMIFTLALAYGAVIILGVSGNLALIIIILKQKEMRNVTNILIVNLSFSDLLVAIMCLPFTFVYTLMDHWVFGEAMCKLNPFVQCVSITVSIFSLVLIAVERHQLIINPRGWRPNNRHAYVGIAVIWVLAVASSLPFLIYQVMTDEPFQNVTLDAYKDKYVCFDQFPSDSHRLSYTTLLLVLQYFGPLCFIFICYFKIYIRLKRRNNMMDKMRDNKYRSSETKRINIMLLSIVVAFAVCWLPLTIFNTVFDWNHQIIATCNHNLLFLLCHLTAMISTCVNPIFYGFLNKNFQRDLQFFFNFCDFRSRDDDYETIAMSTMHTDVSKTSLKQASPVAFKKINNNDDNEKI
assaySummary: NPY binding inhibition test ([125I] peptide YY binding to membranes of NPY Y1 receptor expression cells)
conditionNotes: membrane of CHO-K1 cells expressing human NPY Y1 receptor, 25° C., 2 hours; read-out: IC50 against specific [125I] peptide YY binding
From the text: A cDNA sequence encoding a human NPY Y1 receptor [Accession No. L07615] was cloned into expression vectors pEF1x (made by Invitrogen Inc.). The obtained expression vectors were transfected to host cells CHO-K1 NFAT β-Lactamase (Aurora) by cationic lipid method [see Proceedings of the National Academy of Sciences of the United States of America, 84: 7413 (1987)] to give NPY Y1 receptor expression cells. […]
pIC50: −log10 of the molar value.
assayMetric: pIC50

• O=S1(=O)CCN(c2cc(CSc3nc4c(o3)CCCC4)nc(NCC(F)(F)F)c2)CC1 = 7.56
• CCc1oc(CC(O)c2cc(N3C4CCC3COC4)cc(NCC(F)(F)F)n2)nc1C (single isomer, unassigned) = 7.59
• Cc1nc(SCc2cc(N3CCC(F)(F)CC3)cc(NCC(F)(F)F)n2)nn1C = 7.77
• Cc1cc(CCc2cc(N3CCC(F)(F)CC3)cc(NCC#N)n2)nn1C = 8.00
• COC(=O)CNc1cc(N2C3CCC2COC3)cc(CSc2nc(C)c(C)s2)n1 = 8.55
• Cc1nc(SCc2cc(N3C4CCC3COC4)cc(NCC#N)n2)sc1C = 7.80
• Cc1cc(SCc2cc(N3CCC(F)(F)CC3)cc(NCC(F)(F)F)n2)nn1C = 8.66
• Cc1nc(SCc2cc(N3CCC(F)(F)CC3)cc(NCCS(C)(=O)=O)n2)oc1C = 7.80
• Cc1nc(SCc2cc(N3CCCCCC3)cc(NCC(F)(F)F)n2)cn1C = 7.36
• Cc1nc(SCc2cc(N3CCSCC3)cc(NCC#N)n2)n(C)c1C = 8.19

Every entry's value here was drawn from patent US20110015181A1.
